# assay-details: chemical genetic growth profiling, strain panel (AID 1159580);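 further: tested at 20 µM; growth read once vehicle control cultures reached saturation at 30 °C; 1 = growth at the plate median or of vehicle wells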
# run-conditions: S. cerevisiae deletion strains, growth OD, locus YHR094C, strain hxt1, hits give low values
In all, about 5,500 compounds went through this assay and about 2,000 (36%) were called active. Roughly 18% stayed inconclusive and do not appear here. This is one part of the list.
Provide the reported normalized growth of each item.

Per the record, C[C@@H]1CC2C3CCC4=CC(=O)C=C[C@]4(C)[C@@]3(F)[C@@H](O)C[C@]2(C)[C@@]1(O)C(=O)COP(=O)(O)O (some centres not stated) has normalized growth of 1 (inactive)

Consider "COc1cc(C(=O)O)cc(OC)c1O" . Its measured normalized growth is 0.984 (inactive)

Recorded normalized growth (molecule "CCn1cc(C(=O)O)c(=O)c2cc3c(cc21)OCO3" ): 0.987 (inactive)

For record "CN=C1CN(O)C(c2ccccc2)=c2cc(Cl)ccc2=N1" the listed normalized growth is 0.987 (inactive)

Notebook: "Oc1ccc(/C=C/c2cc(O)cc(O)c2)cc1" , normalized growth read as 0.981 (inactive)

The recorded normalized growth for entry "C[C@](N)(Cc1ccc(O)c(O)c1)C(=O)O" equals 0.999 (inactive)

Lab note: CC(C)C1=CC2=CCC3[C@](C)(CCC[C@]3(C)C(=O)O)C2CC1 (some centres not stated) gave normalized growth of 0.976 (inactive)

Data point: "O=C(O)c1cc(=O)c(O)c2c(O)c(O)ccc2c1" ; normalized growth = 1.02 (inactive)

Reported normalized growth for "O=C(O)c1cc(O)c(O)c(O)c1" was 1.02 (inactive)

Recorded result, C#C[C@]1(O)CCC2C3CCc4cc(O)ccc4C3CC[C@@]21C (some centres not stated) , normalized growth: 1.03 (inactive)

Value of normalized growth reported for the molecule "COc1ccccc1N1CCNCC1" is 1.03 (inactive)

Short answer for OCC(S)CS (configuration not stated) : normalized growth was 0.98 (inactive)

----------
# assay-details: chemical genetic growth profiling, strain panel (AID 1159580)
# run-conditions: S. cerevisiae deletion strains, growth OD, locus YLR370C, strain arc18, hits give low values
Out of some 5,500 compounds screened, about 2,000 (36%) were called active. Inconclusive results (about 18%) are left out. This is one part of the list.
readout-label: normalized growth
Note: the reply should be a number with no unit written.

// "COc1ccc(/C=C/C(=O)c2cc(O)ccc2O)cc1" : normalized growth value = 0.72

Measured normalized growth of "COc1ccc2c(c1O)-c1c(OC)c(OC)cc3c1[C@H](C2)N(C)CC3" : 0.979

Lab note: "CC1=C(/C=C/C(C)=C/C=C/C(C)=C/CO)C(C)(C)CCC1" gave normalized growth of 1.01

Record "COc1ccc(/C=C/c2cc(O)cc(O)c2)cc1" , field normalized growth: 1.01

For "O=C(O)c1ccc2c(c1)OCO2" the compound record lists normalized growth as 1.01

Entry CC1(C)C2CC(=O)O[C@@]3(C)C4=CC(=O)O[C@@H](c5ccoc5)[C@]4(C)CCC3[C@@]2(C)C=C[C@H]1O (stereo partly drawn) , normalized growth reported as 0.958

What the record says about "CC1=C(/C=C/C(C)=C/C=C/C(C)=C/C=C/C=C(C)/C=C/C=C(C)/C=C/C2=C(C)CCCC2(C)C)C(C)(C)CCC1" : normalized growth is 1

Query "CCOP(=S)(OCC)Oc1ccc2c(C)c(Cl)c(=O)oc2c1" yields normalized growth of 0.944

# compound "O=C(O)CNCP(=O)(O)O" ; its normalized growth = 1

Consider "CC[C@]12CCCN3CCc4c(n(c5ccccc45)C(=O)C1)[C@@H]32" . Its measured normalized growth is 0.996

Lab note: measured normalized growth of "COP(=S)(OC)Oc1ccc(SC)c(C)c1" was 1.06

The recorded normalized growth for entry COc1cc2c(cc1O)CC1c3c(cc(O)c(OC)c3-2)CCN1C (stereo not drawn) equals 1.03

Sample "O=C(/C=C/c1ccc(O)c(O)c1)O[C@@H]1C[C@](O)(C(=O)O)C[C@@H](O)[C@H]1O" ; normalized growth observed: 0.986

get_value(item= "COc1cc(/C=C/C(=O)O)ccc1O" , readout=normalized growth) returns 1.02

// normalized growth value for "NCCCCN=C(N)N" : 1.03

In plain terms, "Cc1ccc(C(C)C)cc2c(C)ccc1-2" has a documented normalized growth of 0.995

Please fill in: normalized growth reported for "CC1=C(/C=C/C(C)=C/C=C/C(C)=C/C(=O)O)C(C)(C)CCC1" = 0.989

Lab note: "CCOC(=O)C1=C[C@]2(CC)CCCN3CCc4c(n1c1ccccc41)[C@@H]32" gave normalized growth of 1.02

Lab note: measured normalized growth of "CC[C@]12CCCN3CCc4c(n(c5ccccc45)[C@](O)(C(=O)OC)C1)[C@@H]32" was 0.975

Lookup result for "Oc1ccc(/C=C/c2cc(O)cc(O)c2)cc1" ; measured normalized growth: 1.01

The recorded normalized growth for "CN(Cc1cc(Br)cc(Br)c1N)C1CCCCC1" is 1.04

# normalized growth (compound: "NCc1ccc(S(N)(=O)=O)cc1" ) is 1.01

The compound CCCCC(CC)CN=C(N)NC(N)=NCCCCCCN=C(N)NC(N)=NCC(CC)CCCC (stereo not drawn) showed normalized growth equal to 0.0632

----------
# assay-details: chemical genetic growth profiling, strain panel (AID 1159580);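 further: tested at 20 µM; growth read once vehicle control cultures reached saturation at 30 °C; 1 = growth at the plate median or of vehicle wells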
# run-conditions: S. cerevisiae strains, growth OD, strain wild type, hits give low values
Among all 5,500 compounds or so, about 2,000 (36%) were called active. Roughly 18% stayed inconclusive and do not appear here. This is one part of the list.
Would you mind telling me the reported normalized growth of each entry?
I'd appreciate a reply containing only the number, no unit.

For "CCOC(N)=O" the molecule record lists normalized growth as 1.01

Consider "Nc1ccc(S(=O)(=O)Nc2nccs2)cc1" . Its measured normalized growth is 0.997

Notebook: Nc1nc(N)c2nc(CNc3ccc(C(=O)NC(CCC(=O)O)C(=O)O)cc3)cnc2n1 (stereo unspecified) , normalized growth read as 1.01

Sure, the documented normalized growth for "Cc1cc(/C=N/NC(N)=S)c2c(C)ccc(C(C)C)cc1-2" is 1.02

Sample "c1cc2c(cc1[C@H]1OC[C@H]3[C@@H]1CO[C@H]3c1ccc3c(c1)OCO3)OCO2" ; normalized growth observed: 0.93

Quick note, normalized growth for CC(=O)N[C@@H]1[C@@H](C(O)[C@H](O)CO)O[C@](O)(C(=O)O)C[C@@H]1O (stereo partly specified) landed at 1.01

"CCOP(=S)(OCC)SCCSCC" has a reported normalized growth of 0.979

Entry under test: CN(Cc1cnc2nc(N)nc(N)c2n1)c1ccc(C(=O)NC(CCC(=O)O)C(=O)O)cc1 (stereo unspecified) . Its normalized growth was 0.973

# normalized growth of O=C(O)CCCCC1SCC2NC(=O)NC21 (stereo unspecified) = 1.01

Just so you know, measured normalized growth for "O=C(O)c1cc(=O)c2c(OCC(O)COc3cccc4oc(C(=O)O)cc(=O)c34)cccc2o1" came out at 1.01

So, "Cc1ccc(C(C)C)cc2c(C)ccc1-2" ? Its normalized growth was 0.995

----------
# assay-details: chemical genetic growth profiling, strain panel (AID 1159580);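 further: tested at 20 µM; growth read once vehicle control cultures reached saturation at 30 °C; 1 = growth at the plate median or of vehicle wells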
# run-conditions: S. cerevisiae deletion strains, growth OD, locus YMR078C, strain ctf18, hits give low values
In all, about 5,500 compounds went through this assay and about 2,000 (36%) were called active. Inconclusive results (about 18%) are left out. This is one part of the list.
readout-label: normalized growth
Could you keep your reply to the number by itself?

Reported normalized growth of "C[C@@H]1C[C@@H]([C@H](O)CC2CC(=O)NC(=O)C2)C(=O)[C@@H](C)C1" : 0.0691

Looking up COc1cc(C)c2c(c1C=O)Oc1c(c(C)c(O)c3c1C(O)OC3=O)OC2=O (stereo unspecified) , I found its normalized growth recorded as 0.995

Lookup result for Nc1c(Br)cc(Br)cc1CNC1CCC(O)CC1 (stereo unspecified) ; measured normalized growth: 1.01

GET /value?item= "COc1cc(/C=C/C(=O)O)cc(OC)c1OC" &field=normalized growth returns 1.05

So, CCCCC(CC)CN=C(N)NC(N)=NCCCCCCN=C(N)NC(N)=NCC(CC)CCCC (stereo unspecified) ? Its normalized growth was 0.0695

Data point: "COc1ccc(/C=C/C(=O)O)cc1OC" ; normalized growth = 1.01

----------
# assay-details: chemical genetic growth profiling, strain panel (AID 1159580);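 further: tested at 20 µM; growth read once vehicle control cultures reached saturation at 30 °C; 1 = growth at the plate median or of vehicle wells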
# run-conditions: S. cerevisiae deletion strains, growth OD, locus YOR136W, strain idh2, hits give low values
Among all 5,500 compounds or so, about 2,000 (36%) were called active. About 18% were inconclusive and are not listed. The list shows a part of the results.
Cut-off 1 on normalized growth: below means 1.0, at or above means 0.0.

stdin: Say whether its normalized growth is strictly beneath 1. Entry: CC[C@@H](C(=O)[C@@H](C)[C@@H](O)[C@H](C)[C@@H]1O[C@@H]([C@@H](CC)C(=O)O)CC[C@@H]1C)[C@H]1OC2(C=C[C@@H](O)[C@]3(CC[C@@](C)([C@H]4CC[C@](O)(CC)[C@H](C)O4)O3)O2)[C@H](C)C[C@@H]1C (stereo not given in full)
stdout: 1.0

stdin: In the record for "COc1cc(O)cc(/C=C/c2ccccc2)c1" , is normalized growth less than 1?
stdout: 1.0

stdin: Item "COc1ccc(/C=C/c2cc(O)cc(O)c2)cc1" : normalized growth beneath 1, strictly?
stdout: 1.0

stdin: Take the compound "COc1ccccc1N1CCNCC1" and say whether its normalized growth is less than 1.
stdout: 0.0
